measured-quantity: melting point

Prompt: melting point lookup needed for COC(=O)c1ccc(/C=C/c2ccc(SC)cc2)nc1 , thanks.
Response: 157 to 159 °C

Prompt: melting point lookup needed for CCCCOc1nc(NC(C)=O)nc2ccc(Cl)nc12 , thanks.
Response: 158 to 159 °C

Prompt: melting point lookup needed for COCc1cnc2c(NC(=O)c3c(Cl)cccc3Cl)cccc2c1Cl , thanks.
Response: 177 °C

Prompt: melting point lookup needed for COP(=O)(Cc1ccc2ccc(CP(=O)(OC)OC)cc2c1)OC , thanks.
Response: 87 to 88 °C

Prompt: melting point lookup needed for COc1nc2cc(Cl)c(Cl)cc2nc1OC , thanks.
Response: 144 to 146 °C

Prompt: melting point lookup needed for CCc1nc(OCc2ccc(Oc3ccc(C(F)(F)F)cc3)cc2)c(C)c(=O)n1CC , thanks.
Response: 93.8 to 95.7 °C

Prompt: melting point lookup needed for Cn1c(-c2ccccc2)cc2onc(-c3ccccc3)c2c1=O , thanks.
Response: 145 to 148 °C

Prompt: melting point lookup needed for CCOP(=S)(OCC)Oc1cc(C(=O)OC)sc1C(=O)OC , thanks.
Response: 50 °C

Prompt: melting point lookup needed for Fc1ccccc1-c1ncn(CCCCN2CCOCC2)c1-c1ccncc1 , thanks.
Response: 103 to 104 °C

Prompt: melting point lookup needed for CCOC(=O)C1=C(COCC(C)(O)c2ccco2)NC(C)=C(C(=O)OC)C1c1cccc(Cl)c1Cl (stereo not given) , thanks.
Response: 88 to 90 °C

---

measured-quantity: melting point

Prompt: melting point lookup needed for CCCCNc1nc(N)nc(NCCCC)n1 , thanks.
Response: 73 °C

Prompt: melting point lookup needed for CCOC(=O)c1cc(Cl)cnc1N , thanks.
Response: 120 to 122 °C

Prompt: melting point lookup needed for COc1ccc2nc(SC3CCCc4ccc(O)nc43)[nH]c2c1 (centres undefined) , thanks.
Response: 217 to 218 °C

Prompt: melting point lookup needed for COc1ccc2c(c1)c1c3c(c(-c4ccccc4OC)cc1n2CCCO)C(=O)NC3=O , thanks.
Response: 223 to 225 °C

Prompt: melting point lookup needed for Cc1nn(C(=O)NC(C)(C)CCc2ccccc2Cl)c(=O)n1N , thanks.
Response: 102 °C

Prompt: melting point lookup needed for CC1=C(C#N)C(=C(C#N)C#N)OC1(C)c1ccc(Cl)c(Cl)c1 (centres undefined) , thanks.
Response: 226 to 229 °C

Prompt: melting point lookup needed for COc1cc2c(cc1Br)-c1c(-c3cccs3)c3c(n1CC2)C(=O)N(C(C)C)CCN(C(=O)C(C)C)C3 , thanks.
Response: 248 to 249 °C

Prompt: melting point lookup needed for Cc1ccc(-c2c(C)c(NC(=O)CC(C)(C)C)c(C)c3c2OCC3c2ccc(C(C)C)cc2)cc1 (centres undefined) , thanks.
Response: 194 to 195 °C

Prompt: melting point lookup needed for CNC(=O)c1ccccc1Nc1nc(Nc2cc3c(cc2OC)CC(=O)N(CCCN2CCOCC2)CC3)ncc1Cl , thanks.
Response: 92 to 100 °C

---

Answer each item with its documented melting point.

Prompt: melting point lookup needed for O=C(O)c1ccc(NCc2ccc(F)cc2)cn1 , thanks.
Response: 197 to 200 °C

Prompt: melting point lookup needed for CC1(C)COC(c2ccc(N)c(N)c2)(c2cccs2)OC1 , thanks.
Response: 178 °C

Prompt: melting point lookup needed for COc1cc2c(c(OC(=O)Cc3ccccc3)c1OC)=NC(=O)C(=O)N=2 , thanks.
Response: 298 to 300 °C

Prompt: melting point lookup needed for CC(C)(C)OC(=O)NC(Cc1ccccc1)C(=O)OC(Cc1c[nH]cn1)C(=O)O (configuration not stated) , thanks.
Response: 130 to 131 °C

Prompt: melting point lookup needed for CC(C)(C)NC(=O)C(Br)CCl (configuration not stated) , thanks.
Response: 163 to 168 °C

Prompt: melting point lookup needed for CCOC(=O)c1ccc(OC)nc1C(F)(F)F , thanks.
Response: 150 to 152 °C

Prompt: melting point lookup needed for O=C1c2ccc(O)cc2C(=O)N1c1cccc(O)c1 , thanks.
Response: 270 °C

Prompt: melting point lookup needed for O=C1OC(CNC(=S)C(F)F)CN1c1ccc(N2CCOCC2)c(F)c1 (configuration not stated) , thanks.
Response: 125 to 127 °C

Prompt: melting point lookup needed for O=C(O)CCCCN(C1CCNCC1)S(=O)(=O)c1ccccc1 , thanks.
Response: 115 to 120 °C

Prompt: melting point lookup needed for COc1ccc(Cl)cc1C(=O)NCCc1ccc(-c2ccc(OC(C)(C)C(=O)O)cc2)cc1 , thanks.
Response: 145 °C

Prompt: melting point lookup needed for CC1(C)C(=O)N(c2ccc(C#N)c(C(F)(F)F)c2)C(=O)N1CCCO , thanks.
Response: 131 to 132 °C

Prompt: melting point lookup needed for CS(=O)(=O)c1ccc(-c2cc(=O)cc(C(=O)O)o2)cc1 , thanks.
Response: 269 to 271 °C

Prompt: melting point lookup needed for CC(=O)N1CCC(CCC(=O)c2ccc(N(C)C)cc2)CC1 , thanks.
Response: 158 to 160 °C

Prompt: melting point lookup needed for Cc1nc(C)c(CBr)nc1C , thanks.
Response: 41.2 to 44 °C

Prompt: melting point lookup needed for CN(Cc1ccc(-c2ccc(N3C[C@H](Cn4ccnn4)OC3=O)cc2F)cn1)CC(O)CO (some centres not stated) , thanks.
Response: 123 °C

Prompt: melting point lookup needed for COCCN1CCC(O)(c2cccc(Cl)c2Cl)CC1 , thanks.
Response: 135 to 137 °C

Prompt: melting point lookup needed for Cc1noc(NS(=O)(=O)c2ccc(-c3ccccc3)cc2)c1Br , thanks.
Response: 133 to 135 °C

Prompt: melting point lookup needed for Cc1noc(-c2ccccc2)c1/C=C/C(=O)O , thanks.
Response: 173 to 174 °C

Prompt: melting point lookup needed for FC(F)Oc1cc(Oc2ccnc(-c3cnccn3)n2)ccn1 , thanks.
Response: 128 to 129 °C

Prompt: melting point lookup needed for CC=C(C)C(=O)c1c(O)c2c(c3c(CCC)cc(=O)oc13)OC(C)(C)C=C2 , thanks.
Response: 110 to 112 °C

Prompt: melting point lookup needed for CC(C)(C)c1ccc(CN2CCN(c3ccccc3)CC2)o1 , thanks.
Response: 48 °C

Prompt: melting point lookup needed for CC(O)C#Cc1ncn2c1CN(C)C(=O)c1c(Cl)cccc1-2 (configuration not stated) , thanks.
Response: 251 to 252 °C
